# Experimental System: Tyrosine-protein kinase JAK3 (Homo sapiens) (UniProt P52333)
# Sequence (whole entry): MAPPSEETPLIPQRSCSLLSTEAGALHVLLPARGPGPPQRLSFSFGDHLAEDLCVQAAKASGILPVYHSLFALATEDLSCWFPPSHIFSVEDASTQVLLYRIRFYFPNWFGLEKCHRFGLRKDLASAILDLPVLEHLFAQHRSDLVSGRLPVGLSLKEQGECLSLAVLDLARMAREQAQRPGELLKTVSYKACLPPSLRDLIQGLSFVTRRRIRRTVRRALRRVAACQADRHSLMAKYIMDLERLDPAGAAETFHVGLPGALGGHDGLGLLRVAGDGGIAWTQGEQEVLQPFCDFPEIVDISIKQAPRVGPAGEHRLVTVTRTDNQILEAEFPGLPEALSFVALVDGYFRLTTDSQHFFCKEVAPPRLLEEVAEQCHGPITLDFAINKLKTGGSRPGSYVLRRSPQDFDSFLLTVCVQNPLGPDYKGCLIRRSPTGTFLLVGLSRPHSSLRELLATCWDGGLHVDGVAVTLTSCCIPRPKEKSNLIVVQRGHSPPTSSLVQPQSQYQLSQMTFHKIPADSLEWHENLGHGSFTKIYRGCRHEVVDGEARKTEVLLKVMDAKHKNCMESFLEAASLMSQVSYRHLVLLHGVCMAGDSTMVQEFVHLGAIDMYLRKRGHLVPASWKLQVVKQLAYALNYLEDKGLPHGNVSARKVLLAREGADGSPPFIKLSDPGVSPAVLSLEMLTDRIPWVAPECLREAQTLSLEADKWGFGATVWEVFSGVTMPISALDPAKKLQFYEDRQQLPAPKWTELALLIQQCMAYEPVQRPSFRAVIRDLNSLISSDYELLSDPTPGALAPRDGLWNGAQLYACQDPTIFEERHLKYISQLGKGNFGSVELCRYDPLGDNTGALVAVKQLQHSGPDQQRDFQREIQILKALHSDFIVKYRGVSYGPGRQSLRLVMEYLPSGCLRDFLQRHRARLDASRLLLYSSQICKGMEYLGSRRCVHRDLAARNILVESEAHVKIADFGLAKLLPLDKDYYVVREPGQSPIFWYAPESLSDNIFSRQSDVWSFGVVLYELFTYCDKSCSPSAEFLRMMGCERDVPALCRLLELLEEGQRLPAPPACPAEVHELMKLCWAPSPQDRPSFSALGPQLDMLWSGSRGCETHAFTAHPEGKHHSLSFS
# Setup Conditions: at 1 µM
Quantity Measured: residual activity (%)

1) C[C@@H](N)[C@H]1CC[C@H](C(=O)Nc2ccncc2)CC1    107
2) CC(=O)O/N=C1\C(=C2\C(=O)Nc3cc(Br)ccc32)Nc2ccccc21    75
3) CNc1cc2c(Nc3cccc(Br)c3)ncnc2cn1    96
4) Oc1ccc(Nc2nc(-c3ccc(Cl)cc3)cs2)cc1    95
5) N#C/C(=C(\N)Sc1ccc(N)cc1)c1ccccc1C(F)(F)F    101
6) Cn1cnc2cc3c(Nc4cccc(Br)c4)ncnc3cc21    102

###

compounds and their reported residual activity
# Experimental System: Serine/threonine-protein kinase Nek6 (Homo sapiens) (UniProt Q9HC98)
# Sequence (Q9HC98 whole entry): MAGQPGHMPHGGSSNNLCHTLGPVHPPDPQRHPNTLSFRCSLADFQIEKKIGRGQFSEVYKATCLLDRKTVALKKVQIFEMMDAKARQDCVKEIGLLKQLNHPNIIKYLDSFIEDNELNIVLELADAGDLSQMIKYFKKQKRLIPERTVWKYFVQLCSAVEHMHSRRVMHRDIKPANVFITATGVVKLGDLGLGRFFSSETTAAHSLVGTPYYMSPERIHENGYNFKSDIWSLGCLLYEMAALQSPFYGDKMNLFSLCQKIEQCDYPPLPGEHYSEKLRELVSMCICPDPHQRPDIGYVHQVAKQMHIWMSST
# Setup Conditions: at 1 µM
# Description: Millipore: Percentage of residual kinase activity of NEK6 at 1uM relative to control. Control inhibitor: Phosphoric acid* at 0.3uM. Buffer: 8 mM MOPS pH 7.0, 0.2 mM EDTA
Quantity Measured: residual activity (%)

1) CCN(CC)CCCCN1c2ccccc2Oc2ccc(Cl)cc21    106
2) Cc1cccc(-c2[nH]c(C(C)(C)C)nc2-c2ccc3c(c2)OCO3)n1    90
3) CC(C)n1cnc2/c(=N/c3cccc(Cl)c3)nc(NCCO)[nH]c21    118
4) O=C1NC(=O)/C(=C\c2ccc3nccnc3c2)S1    91
5) c1ccc2c(-c3ccncc3)c[nH]c2c1    95
6) CN(C)c1ccc(/C=C2\C(=O)Nc3ccccc32)cc1    108

###

compounds and their reported residual activity
# Experimental System: Ephrin type-A receptor 3 (Homo sapiens)
# Setup Conditions: at 10 µM
Quantity Measured: residual activity (%)

1. COc1ccc(CNc2nc(N(CCO)CCO)nc3c2ncn3C(C)C)cc1    90
2. CC#CC(=O)Nc1cc2c(Nc3ccc(F)c(Cl)c3)ncnc2cn1    92
3. COc1cccc(-c2cc(=O)c3ccccc3o2)c1N    108
4. COc1cc2ncnc(Nc3ccc(NC(=O)c4ccccc4)cc3)c2cc1OC    102
5. Nc1nc(Nc2ccc(S(N)(=O)=O)cc2)nn1C(=S)Nc1c(F)cccc1F    23
6. CN(C)CCCn1cc(C2=C(c3c[nH]c4ccccc34)C(=O)NC2=O)c2ccccc21    82

###

# Experimental System: Serine/threonine-protein kinase PLK1 (Homo sapiens) (UniProt P53350)
# Sequence (P53350 whole entry): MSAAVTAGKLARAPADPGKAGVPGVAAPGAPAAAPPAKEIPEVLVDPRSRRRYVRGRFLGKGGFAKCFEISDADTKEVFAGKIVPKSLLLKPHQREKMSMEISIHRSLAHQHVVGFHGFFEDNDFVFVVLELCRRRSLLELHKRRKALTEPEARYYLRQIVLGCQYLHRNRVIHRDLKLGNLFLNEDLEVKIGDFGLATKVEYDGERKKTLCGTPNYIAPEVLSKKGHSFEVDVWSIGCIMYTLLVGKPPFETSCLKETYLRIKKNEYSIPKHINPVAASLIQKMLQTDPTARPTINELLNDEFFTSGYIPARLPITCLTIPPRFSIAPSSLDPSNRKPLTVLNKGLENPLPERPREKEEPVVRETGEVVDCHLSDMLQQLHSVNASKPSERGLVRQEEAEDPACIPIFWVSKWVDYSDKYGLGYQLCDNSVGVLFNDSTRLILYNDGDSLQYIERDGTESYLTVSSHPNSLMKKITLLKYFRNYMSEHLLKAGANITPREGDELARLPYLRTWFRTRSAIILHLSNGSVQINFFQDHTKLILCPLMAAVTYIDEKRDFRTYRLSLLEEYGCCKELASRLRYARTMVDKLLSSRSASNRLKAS
# Setup Conditions: at 1 µM
Field: class. Source value: residual activity. Ranges: zone 1 (below 80%), zone 2 (80% to below 90%), zone 3 (90% or more)

1. CO[C@H]1[C@@H](OC)C[C@H](C)[C@@H](OC)C2=CC(=O)C=C(NC(=O)/C(C)=C/C=C/[C@H](OC)[C@@H](OC(N)=O)/C(C)=C/[C@@H]1C)C2=O    zone 2
2. O=C1Nc2ccccc2/C1=C1/Nc2ccccc2/C1=N\OCCC(O)CO (centres undefined)    zone 1
3. COc1cc2ncnc(Nc3ccc(Oc4ccccc4)cc3)c2cc1OC    zone 1
4. COc1cc2ncnc(Nc3ccc(O)c(Br)c3)c2cc1OC    zone 1
5. Oc1n[nH]c2nnc(-c3c(-c4ccccc4)nn4ccccc34)cc12    zone 1
6. Oc1c2ccccc2c2c3c(cccc13)N=N2    zone 1
7. Ic1cccc(CSc2nnc(-c3ccncc3)o2)c1    zone 1
8. N#C/C(=C(\N)Sc1ccc(N)cc1)c1ccccc1C(F)(F)F    zone 2
9. Cc1ccc(NC2=CC(=O)c3sc(C)nc3C2=O)cc1    zone 2
10. CCN(CC)CCCCN1c2ccccc2Oc2ccc(Cl)cc21    zone 3
11. CN(C)CCCn1cc(C2=C(c3c[nH]c4ccccc34)C(=O)NC2=O)c2ccccc21    zone 3
12. O=C1c2ccccc2-[n+]2ccc3c([nH]c4ccccc43)c21    zone 1
13. CCC(=O)Nc1ccc2ncnc(Nc3cccc(Br)c3)c2c1    zone 3

###

# Experimental System: Cyclin-dependent kinase 5/CDK5 activator 1 (Homo sapiens) (UniProt Q00535+Q15078)
# Sequence (Q00535 whole entry): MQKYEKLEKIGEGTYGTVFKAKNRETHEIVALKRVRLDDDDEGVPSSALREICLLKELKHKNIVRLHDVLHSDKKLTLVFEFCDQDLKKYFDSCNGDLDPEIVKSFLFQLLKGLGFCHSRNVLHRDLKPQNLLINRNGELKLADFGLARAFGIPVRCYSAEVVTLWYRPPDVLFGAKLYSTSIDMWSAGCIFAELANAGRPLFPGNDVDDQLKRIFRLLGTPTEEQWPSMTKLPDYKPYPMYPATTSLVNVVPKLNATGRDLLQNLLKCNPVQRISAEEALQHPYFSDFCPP
# Sequence (Q15078 99-307 partner limits assumed): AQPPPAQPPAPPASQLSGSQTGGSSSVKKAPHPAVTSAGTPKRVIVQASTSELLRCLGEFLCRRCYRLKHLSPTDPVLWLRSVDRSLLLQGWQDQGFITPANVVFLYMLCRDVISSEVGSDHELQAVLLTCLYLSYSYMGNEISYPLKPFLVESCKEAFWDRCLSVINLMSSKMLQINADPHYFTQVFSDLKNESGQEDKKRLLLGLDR
# Setup Conditions: at 10 µM
Quantity Measured: residual activity (%)

1) COc1cc2ncnc(N3CCN(C(=O)Nc4ccc(Oc5ccccc5)cc4)CC3)c2cc1OC    75
2) O=[N+]([O-])c1ccc(-c2nc(-c3ccc(F)cc3)c(-c3ccncc3)[nH]2)cc1    98
3) O=Nc1c(-c2c(O)[nH]c3ccccc23)[nH]c2ccccc12    1
4) Ic1cccc(CSc2nnc(-c3ccncc3)o2)c1    3
5) CCN(CC)CCCCN1c2ccccc2Oc2ccc(Cl)cc21    105
6) Cn1cc(/C=C2\C(=O)Nc3ccc(S(N)(=O)=O)cc32)c2ccccc21    34
7) O=c1cc(-c2cccc3c2Sc2ccccc2S3)oc(N2CCOCC2)c1    90
8) Nc1nc(Nc2ccc(S(N)(=O)=O)cc2)nn1C(=S)Nc1c(F)cccc1F    -1
9) O=C1c2ccccc2-[n+]2ccc3c([nH]c4ccccc43)c21    82
10) CN(C)CCCn1cc(C2=C(c3c[nH]c4ccccc34)C(=O)NC2=O)c2ccccc21    33
11) Cc1nc(-c2ccccc2)c(-c2ccncc2)o1    93
12) CCOc1cc2ncnc(Nc3cccc(Br)c3)c2cc1OCC    81
13) C[C@@H](N)[C@H]1CC[C@H](C(=O)Nc2ccncc2)CC1    78
14) Cc1nc2cc3nc(-c4cccs4)cnc3cc2n1C    99
15) N#Cc1cnc2cnc(NCc3cccnc3)cc2c1Nc1ccc(F)c(Cl)c1    11
16) O=C1NC(=O)c2cc(Nc3ccc(F)cc3)c(Nc3ccc(F)cc3)cc21    60
17) CC#CC(=O)Nc1cc2c(Nc3ccc(F)c(Cl)c3)ncnc2cn1    103
18) Nc1n[nH]c2nnc(-c3c(-c4ccccc4)nn4ccccc34)cc12    79
19) Oc1n[nH]c2nnc(-c3c(-c4ccccc4)nn4ccccc34)cc12    82
20) CO[C@H]1C[C@@H]2CC[C@@H](C)[C@@](O)(O2)C(=O)C(=O)N2CCCC[C@H]2C(=O)O[C@H]([C@H](C)C[C@@H]2CC[C@@H](O)[C@H](OC)C2)CC(=O)[C@H](C)/C=C(\C)[C@@H](O)[C@@H](OC)C(=O)[C@H](C)C[C@H](C)/C=C/C=C/C=C/1C    100

###

# Experimental System: Serine/threonine-protein kinase Sgk2 (Homo sapiens) (UniProt Q9HBY8)
# Sequence (Q9HBY8 whole entry): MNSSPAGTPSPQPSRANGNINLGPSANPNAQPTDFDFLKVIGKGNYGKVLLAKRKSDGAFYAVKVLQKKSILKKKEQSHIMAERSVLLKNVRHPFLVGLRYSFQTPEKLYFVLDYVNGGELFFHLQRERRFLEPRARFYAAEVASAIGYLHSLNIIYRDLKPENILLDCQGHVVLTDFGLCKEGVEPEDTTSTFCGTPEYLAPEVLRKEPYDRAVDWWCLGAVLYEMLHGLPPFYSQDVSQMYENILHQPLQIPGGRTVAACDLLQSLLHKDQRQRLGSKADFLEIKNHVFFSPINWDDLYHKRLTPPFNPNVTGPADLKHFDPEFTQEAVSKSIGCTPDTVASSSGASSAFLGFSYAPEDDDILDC
# Setup Conditions: at 10 µM
Quantity Measured: residual activity (%)

1. CC(=O)O/N=C1\C(=C2\C(=O)Nc3cc(Br)ccc32)Nc2ccccc21    48
2. O=C(O)c1ccc2c3c1cccc3c(=O)n1c3ccccc3nc21    85
3. N#Cc1cnc2cnc(NCc3cccnc3)cc2c1Nc1ccc(F)c(Cl)c1    63
4. O=Nc1c(-c2c(O)[nH]c3ccccc23)[nH]c2ccccc12    24
5. Ic1cccc(CSc2nnc(-c3ccncc3)o2)c1    78
6. Oc1ccc(-c2nc(-c3ccc(F)cc3)c(-c3ccncc3)[nH]2)cc1    55
